Would you kindly list PBM binding z-score for each of these sequences?
- Tested on: PPARg DBDmut IVT, anti-PPARg (DBD mutation: PPARg1 K132A/R137A, NR concentration 270 nM)
- experimental.protocol: PBM binding z-score (relative to random genomic background probes); higher = stronger binding; sequences stand for … in GC…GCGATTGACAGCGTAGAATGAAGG
Answers are plain numbers.

Example sequences with recorded PBM binding z-score:
* GCATATAGGTAATACACGGTGAAAGTCCGATTGT | 1.01
* TCTCGGAGGACACGAAATGTCAGAGCTCGACATC | -0.287
* CAGCCTAGGTCAGGCCCAGTATAGGAGGAACGTT | -1.02
* CCTCGGAAGACAGAAGGTCAGAGCTGTCCGCTTT | -1.96
* ATCTCTACGTAACAAGTTCAGTGAAAGAGAGGAC | 1.51

List PBM binding z-score for every entry below, keeping the order given.
1. CGTCCAAGATCAAGGTCAGTGAAAGAGACTCGAA
2. CGTGAAAGTTCAAGGTAACGTAACAGAAAGCAGC
3. TAGCCTAGGTTATTGGGCCAGTATAGTACGCATC
4. TCTTGTAGATCAAGCAGGGTAAGAAAGCCTGAGT
5. ACTATTAGTTGACTTAGGGCAACCTATACGACGC
6. ATCGAACGGTCGTGAGGTGAGTATACAGAAAGGC

[-0.447, 0.978, 0.0704, -0.000734, 1.54, 0.339]

Count: 4. Required value per item: PBM binding z-score.
1. CCTACTGGGACATCAGGTCATTGATATCAACGTT
2. CCTAGTTGGTCAAGGTCACACACGCTATAGGTAC
3. CCGAGTAGGTTATGCGGCATTCAGGCAACGGTGA
4. CCTACTGGTCCAAAAAGGTCATTGATGCCGATAA

[0.76, 1.3, -0.567, 0.0096]

Can you give me PBM binding z-score for all of these, one by one?
1. AGAATGAGGTTAACATCAGGGAAACAGAATACAT
2. CCGACTGGGGCAGAAAGGTAACCATACCATCCGG
3. GCTCGGAGGACAAGGTCAAAGCTTTGTCCGTAGA
4. ACTTACGGGTCAACTAGGTTATAGCACGCGTATA
5. ATCTCTAGGTAACCAAGTTCAGTGATTGCCGAAC

1: 1.16; 2: -1.27; 3: -1.02; 4: 1.61; 5: 1.33

# per-item lookup of PBM binding z-score; items listed below
1. CTCGACAGGTCGGTTGAGGTGAGTATACGGATAA
2. ACAGACAGGTGATGAAGGTAACTAAGGCTATCAT
3. GATACAGGGTCAGCTAGAGGCCGGAGTATGGAAA
4. AGGACGAGGGCAATGAGTTGATAGCACGGGTGGC
5. CCAGACAGGTGATAGGTAACTCAGTCTGGTACGC
6. ATATCTAGGTAAAGTTCAGTGAAAGATCGATAGA

-0.718
-0.211
0.124
0.19
0.0703
1.59

----------
- Tested on: PPARg:RXRa 270nM:90nM, anti-RXR (NR concentration 270 nM, RXRa partner concentration 90 nM)
- experimental.protocol: PBM binding z-score (relative to random genomic background probes); higher = stronger binding; sequences stand for … in GC…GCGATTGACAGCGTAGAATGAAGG
Give satisfied when the value for PBM binding z-score is at least 2. Give not satisfied when it is less.

• TAGCCTAGGTCATGCGGGCCCGTATAGTGTCGGC = satisfied
• CCTAACGGGTCACTCCAGGTTATAGCATCGGAGT = satisfied
• GATACAGGGTCAGCGAGAGGCCAGAGTATGGAAA = satisfied
• CCGACTGGGGCAGAAAGTTTACCATACCATCCGG = not satisfied
• AATACAGGGTCACTAGGCCAGAGGAGGTACGAAT = satisfied

Kindly determine if PBM binding z-score recorded for GCTGCTTGGTCAACTGATGGTCAGCTAAAGCTCG is above or exactly 2.
not satisfied

Check this sequence for PBM binding z-score at or above 2: GCAGACAGGTGAAACGCAGGTAACTGAGGGTGGC
not satisfied

Quick check, PBM binding z-score >= 2? CCGACTGGGCCAAAGGTTACCATACTCAGTACGA
satisfied

Please check the record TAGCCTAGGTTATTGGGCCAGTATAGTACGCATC and state if its PBM binding z-score is at or above 2.
not satisfied

Attribution: the supplement of paper PMC6555819
